Provenance of the data: ChEMBL document CHEMBL1139129

Please go through the items and note down their pIC50.
Biological target: UniProt:P05067
Sequence (P05067 whole entry): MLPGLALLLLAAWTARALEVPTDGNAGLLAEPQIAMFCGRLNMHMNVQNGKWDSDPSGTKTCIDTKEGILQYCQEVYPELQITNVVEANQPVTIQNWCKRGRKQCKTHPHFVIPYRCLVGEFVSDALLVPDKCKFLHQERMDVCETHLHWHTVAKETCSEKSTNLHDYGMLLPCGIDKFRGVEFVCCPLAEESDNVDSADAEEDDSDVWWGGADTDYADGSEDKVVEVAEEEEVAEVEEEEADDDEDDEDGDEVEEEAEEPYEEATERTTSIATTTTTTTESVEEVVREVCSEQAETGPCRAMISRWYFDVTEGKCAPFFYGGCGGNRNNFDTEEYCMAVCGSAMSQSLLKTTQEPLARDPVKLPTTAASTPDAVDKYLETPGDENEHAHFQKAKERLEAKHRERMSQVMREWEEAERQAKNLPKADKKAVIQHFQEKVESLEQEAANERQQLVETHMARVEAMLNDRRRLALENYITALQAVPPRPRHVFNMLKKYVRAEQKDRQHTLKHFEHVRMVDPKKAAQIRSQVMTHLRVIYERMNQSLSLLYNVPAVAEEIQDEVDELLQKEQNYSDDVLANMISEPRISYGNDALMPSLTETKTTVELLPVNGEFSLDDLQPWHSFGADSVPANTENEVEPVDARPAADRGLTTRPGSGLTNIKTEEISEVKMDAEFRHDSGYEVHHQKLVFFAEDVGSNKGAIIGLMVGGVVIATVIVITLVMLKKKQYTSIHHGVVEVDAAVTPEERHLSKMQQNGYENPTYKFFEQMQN
Assay: Inhibition of amyloid beta 42 fibril formation by thioflavin T assay
Numbers only, as −log10 of the molar value.

Answered cases to consult:
> print(dat)
                           smiles.structure  quantity.kind  reading
1  COc1ccc(/C=C/c2cc(Br)cc(/C=C/c3ccc(OC)c(OC)c3)c2)cc1OC          pIC50     4.70
2  COc1cc(/C=C/c2cccc(/C=C/c3ccc(N(C)C)c(OC)c3)c2)ccc1N(C)C          pIC50     6.00
3  COc1ccc(/C=C/c2cccc(/C=C/c3ccc(OC)c(N)c3)n2)cc1N          pIC50     6.22
4  COc1cc(/C=C/c2cccc(/C=C/c3ccc(N)c(OC)c3)n2)ccc1N          pIC50     6.15
5  CNc1cc(/C=C/c2cccc(/C=C/c3ccc(OC)c(NC)c3)c2)ccc1OC          pIC50     5.89
6  CNc1ccc(/C=C/c2cccc(/C=C/c3ccc(NC)c(O)c3)n2)cc1O          pIC50     6.05
7  COc1cc(/C=C/c2cc(Br)cc(/C=C/c3ccc(N)c(OC)c3)n2)ccc1N          pIC50     5.96
8  COc1cc(/C=C/c2cc(Br)cc(/C=C/c3ccc(N)c(OC)c3)c2)ccc1N          pIC50     5.74

Provide pIC50 for all items below, preserving their order.
1. COc1ccc(/C=C/c2cccc(/C=C/c3ccc(OC)c(N)c3)c2)cc1N
2. O=C(O)c1cc(/C=C/c2ccc(/C=C/c3ccc(O)c(C(=O)O)c3)c(I)c2)ccc1O

### Response
1: 6.52; 2: 5.10
